Values compiled from patent US6992193B2.

Target: CYP2D6 (Homo sapiens)
Construct: purchased BD Biosciences
Sequence (P10635 whole entry): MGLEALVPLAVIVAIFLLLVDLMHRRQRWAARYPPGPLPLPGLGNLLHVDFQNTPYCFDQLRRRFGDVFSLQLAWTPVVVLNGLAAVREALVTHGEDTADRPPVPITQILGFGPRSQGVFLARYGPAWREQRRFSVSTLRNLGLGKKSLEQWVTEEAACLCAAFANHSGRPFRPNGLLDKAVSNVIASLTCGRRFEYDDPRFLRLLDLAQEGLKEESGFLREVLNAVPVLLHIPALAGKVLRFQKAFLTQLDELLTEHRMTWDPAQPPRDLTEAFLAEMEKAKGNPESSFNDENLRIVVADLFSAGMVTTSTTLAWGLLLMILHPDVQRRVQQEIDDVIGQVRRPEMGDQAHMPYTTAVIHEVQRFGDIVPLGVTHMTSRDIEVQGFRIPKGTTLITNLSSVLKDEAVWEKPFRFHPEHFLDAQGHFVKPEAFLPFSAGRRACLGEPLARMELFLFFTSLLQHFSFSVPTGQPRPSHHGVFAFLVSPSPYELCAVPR
Experiment: Inhibition of CYP2D6 catalyzed conversion of MAMC to HAMC
Format: in vitro ADME
Details: MAMC to HAMC conversion; read-out: IC50(CYP2D6)
Counter-ions that a name gives are not always drawn.
Please provide measured IC50 for the entries that follow.
Provide only the numeric value, understood in µM.

Exercise: # IC50 lookup, item Cc1noc(C)c1S(=O)(=O)NCc1ccc(CC(=O)N(C)[C@H](CN2CC[C@H](O)C2)c2ccccc2)cc1 [Example 23, hydrochloride]
Solution: 11

Exercise: # IC50 lookup, item CN(C(=O)Cc1ccc(CNS(=O)(=O)c2ccccc2)cc1)[C@H](CN1CC[C@H](O)C1)c1ccccc1 [Example 18, hydrochloride]
Solution: 3.4

Exercise: # IC50 lookup, item Cc1ccc(S(=O)(=O)NCc2ccc(CC(=O)N(C)[C@H](CN3CC[C@H](O)C3)c3ccccc3)cc2)cc1 [Example 20, hydrochloride]
Solution: 4.9

Exercise: # IC50 lookup, item CCCCS(=O)(=O)NCc1ccc(CC(=O)N(C)[C@H](CN2CC[C@H](O)C2)c2ccccc2)cc1 [Example 17, hydrochloride]
Solution: 7.2

---

Please provide measured Ki for the entries that follow.
Target: cloned human δ opioid receptor (Homo sapiens)
Construct: expressed in transfected cells
Sequence (P41143 whole entry): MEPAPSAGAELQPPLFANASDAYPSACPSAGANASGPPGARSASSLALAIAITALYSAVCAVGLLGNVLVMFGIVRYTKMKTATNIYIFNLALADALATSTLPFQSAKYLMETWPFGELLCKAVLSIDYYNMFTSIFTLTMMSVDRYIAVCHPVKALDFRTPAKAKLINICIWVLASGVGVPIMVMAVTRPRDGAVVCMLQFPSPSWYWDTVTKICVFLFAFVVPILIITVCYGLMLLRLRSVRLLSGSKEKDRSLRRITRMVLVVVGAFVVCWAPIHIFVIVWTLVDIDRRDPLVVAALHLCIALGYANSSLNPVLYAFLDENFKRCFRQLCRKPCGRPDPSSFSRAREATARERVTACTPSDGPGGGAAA
Experiment: [3H]diprenorphine binding to cloned human δ opioid receptor
Structures can show the parent of a compound that is named as a salt.

Exercise: What reported Ki corresponds to CN(C(=O)Cc1ccc(CNS(=O)(=O)Cc2ccccc2)cc1)[C@H](CN1CC[C@H](O)C1)c1ccccc1 [Example 21, hydrochloride] on cloned human δ opioid receptor (Homo sapiens)?
Solution: 0.17 µM

Exercise: What reported Ki corresponds to CN(C(=O)Cc1ccc(CNS(=O)(=O)c2cccs2)cc1)[C@H](CN1CC[C@H](O)C1)c1ccccc1 [Example 22, hydrochloride] on cloned human δ opioid receptor (Homo sapiens)?
Solution: 0.056 µM

Exercise: What reported Ki corresponds to CN(C(=O)Cc1ccc(CNS(C)(=O)=O)cc1)[C@H](CN1CCCC1)c1ccccc1 on cloned human δ opioid receptor (Homo sapiens)?
Solution: > 3 µM

Exercise: What reported Ki corresponds to CS(=O)(=O)NCc1ccc(CC(=O)N2CCCC[C@H]2CN2CC[C@H](O)C2)cc1.O=C(O)C(F)(F)F [Example 29, trifluoroacetate] on cloned human δ opioid receptor (Homo sapiens)?
Solution: > 3 µM

Exercise: What reported Ki corresponds to CN(C(=O)Cc1ccc(CNS(=O)(=O)c2ccc(F)cc2)cc1)[C@H](CN1CC[C@H](O)C1)c1ccccc1 [Example 19, hydrochloride] on cloned human δ opioid receptor (Homo sapiens)?
Solution: 0.064 µM

Exercise: What reported Ki corresponds to CC(C)[C@@H](CN1CC[C@H](O)C1)N(C)C(=O)Cc1ccc(CNS(C)(=O)=O)cc1.O=C(O)C(F)(F)F [Example 28, trifluoroacetate] on cloned human δ opioid receptor (Homo sapiens)?
Solution: > 3 µM

Exercise: What reported Ki corresponds to Cc1ccc(S(=O)(=O)NCc2ccc(CC(=O)N(C)[C@H](CN3CC[C@H](O)C3)c3ccccc3)cc2)cc1 [Example 20, hydrochloride] on cloned human δ opioid receptor (Homo sapiens)?
Solution: 0.028 µM

Exercise: What reported Ki corresponds to CCCCS(=O)(=O)NCc1ccc(CC(=O)N(C)[C@H](CN2CC[C@H](O)C2)c2ccccc2)cc1 [Example 17, hydrochloride] on cloned human δ opioid receptor (Homo sapiens)?
Solution: 0.17 µM
